- System: UO-31 renal
- method: NCI-60 one-dose screen, 48 h (100 = growth as untreated, 0 = no growth, -100 = all killed)
- condition info: 10 µM unless noted
The panel holds about 83,000 compounds, 20% with a hit somewhere; the sample as a whole holds those more often.
Assign Y whenever growth does not fall below 30%; assign N whenever it does.

Decide: growth of `CCCCCCCCNC(=O)c1ccc(Cn2c(CCCC)nc3c(N)nc4ccccc4c32)cc1` >= 30%?
N

Can you handle `Fc1ccccc1/C=C(/C1=NCCN1)n1cnc2ccccc21` next?
Y

Can you handle `O=C1c2c(O)cc(O)cc2O[C@@H](c2ccc(O)cc2)[C@@H]1c1c(O)cc(O)c2c(=O)cc(-c3ccc(O)c(O)c3)oc12` next?
Y

Can you handle `N#C/C(=C\c1ccc2ccccc2c1)C(=O)Nc1sc2c(c1C#N)CCC2` next?
Y

Can you handle `CNC(=O)c1cc(Oc2ccc3nc(NC(=O)c4cc(C)cc(C)c4)sc3c2)ccn1` next?
Y

Can you handle `Cc1cc(O)c(=O)cc2c1C[C@H]1CC(C)(C)/C=C/C[C@]3(C)Oc4cc(=O)c(O)cc(C)c4C[C@H]3C[C@H](O)[C@@]1(C)O2` next?
N

Can you handle Nc1nc(N)c2c(n1)NC(c1ccc(Cl)cc1)CC(c1ccc(Nc3nc(NCCO)nc(Nc4ccc(Cl)cc4)n3)cc1)=N2 (centres undefined) next?
Y

Can you handle `COc1ccc(-c2cc(-c3cccc4ccccc34)n3c(n2)nc2ccccc23)cc1` next?
N

----------
- Test system: RXF 393 renal
- method: NCI-60 one-dose screen, 48 h
- condition info: 10 µM unless noted
- Description: Cells are grown in 96 well plates and exposed to the test compound for 48 hours. Compounds are tested at a single concentration, which is 10^-5 M for most compounds. The reported endpoint is percent growth (GI% or GIPRCNT), where numbers from 0 - 100% represent growth inhibition, and numbers from -100% - 0 represent cell death. For example, a value of 40 represents 60% growth inhibition. A value of 0 means no net growth occurred over the course of the experiment. […]
Compounds without any hit were thinned out: in the full panel of roughly 83,000, 20% have a hit. Active and inactive are the calls of the source. How the source made its calls: active means growth percent below 10; inactive means the rest.
Pick from 1 (yes) (active), 0 (no) (inactive) when you respond.

>  <compound>
CC(C)c1nn(-c2ccccc2)c(N2CCCCC2)c1/C=N/NC(N)=S

>  <assigned label>
0 (no)

$$$$
>  <compound>
COc1ccc(CN2C(=O)/C(=C/c3nc(CO)cs3)SC2=S)cc1

>  <assigned label>
0 (no)

$$$$
>  <compound>
COc1ccc(-c2no[n+]([O-])c2Nc2ccccc2Br)cc1

>  <assigned label>
0 (no)

$$$$

Please share the test call associated with `COc1cc(C(=O)C[n+]2ccc3ccccc3c2)cc(OC)c1OC` .
0 (no)

Can you handle CC1OC(O[C@@H]2C(O)C(CO)OC(O[C@H]3COC(O[C@H]4CC[C@]5(C)[C@H]6CC[C@]78OC[C@@]9(CC[C@](C)(C=O)C[C@H]97)[C@H](O)C[C@@]8(C)[C@]6(C)CC[C@H]5C4(C)C)[C@@H](OC4OC(CO)[C@@H](O)[C@@H](O)[C@@H]4O)[C@@H]3O)[C@H]2OC2OC[C@@H](O)[C@@H](O)[C@@H]2O)[C@@H](O)[C@@H](O)[C@H]1O (stereo partly specified) next?
1 (yes)

Can you handle `COc1cc2cc(Oc3ccc(NC(=O)c4cccc(C(F)(F)F)c4)cc3)c(C)nc2cc1OCCN(C)C` next?
0 (no)

Can you handle `CCCCCCNC(=O)Oc1ccc(/C(=C(\C)c2ccc(Cl)cc2)c2ccc(OCCN(C)C)cc2)cc1` next?
0 (no)

Can you handle CCC(CC)n1c(=O)c(SC2=NC3C(NN2)N(CC)C(=O)N3CC)c(C(=O)O)c2ccccc21 (stereo unspecified) next?
0 (no)

Can you handle CCCCCCCCCC[C@@H](C)[C@@H]1CC(=O)N[C@H]([C@@H](C)O)C(=O)N[C@@H](C)C(=O)N[C@H](C)C(=O)N[C@@H](CCC(N)=O)C(=O)N[C@H](Cc2ccc(O)cc2)C(=O)N[C@@H](C(C)CC)C(=O)O1 (stereo partly specified) next?
0 (no)

Can you handle `O=C(NNc1nc2cc(F)c(F)cc2n2cccc12)c1cccnn1` next?
0 (no)

Can you handle `Oc1ccc(CSc2nnc(-c3ccc(Oc4ccccc4)cc3)n2-c2ccccc2)c2cccnc12` next?
0 (no)

Can you handle `O=C(NNc1nc2cc(F)cc(F)c2n2cccc12)c1ccncn1` next?
0 (no)

Can you handle `COc1cc(CNC(=O)/C=C/c2ccccc2)ccc1OCC(=O)NO` next?
0 (no)

Can you handle CC(C)=CCc1c2c(c(O)c3c1O[C@]14C(=C[C@@H]5C[C@H]1C(C)(C)O[C@@]4(C/C=C(/C)C(=O)O)C5=O)C3=O)CC(O)C(C)(C)O2 (stereo partly specified) next?
1 (yes)

Can you handle `Cc1cc(O)c2c(c1)C(=O)C(c1c(C)cc3c(c1O)C(=O)C=CC3=O)=CC2=O` next?
0 (no)

Can you handle `O=C1c2c(c3c4ccc(Br)cc4oc3c3[nH]c4ccccc4c23)C(=O)N1CCO` next?
0 (no)
